B1: INTS4 (parent)
chain: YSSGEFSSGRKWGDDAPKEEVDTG

Variants of: B1
Test: protein stability index of a GFP-peptide fusion (GPS, HEK-293T) (PSI 1-6); higher = more stable;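 further: lentivirally expressed fusions sorted by FACS into six bins by GFP to DsRed ratio, PSI derived from sequencing read proportions per bin multiplied by bin number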
Settings: c terminus: a fixed tail appended
QUANTITY MEASURED: protein stability index
// no unit, no text: just the number

Look over these answered cases.
{"BIOSEQUENCE": "YCSGEFSSGRKWGDDAPKEEVDTG [S2C]", "protein stability index": 2.04}
{"BIOSEQUENCE": "YSSIEFSSGRKWGDDAPKEEVDTG [G4I]", "protein stability index": 4.11}
{"BIOSEQUENCE": "YSSGEFSSGRKWGDDAPKEEVTTG [D22T]", "protein stability index": 2.34}

Answer with the recorded protein stability index of YSSGEFSSGRKWGDDASKEEVDTG [P17S] only.
3.25

Determine its reported protein stability index: YSSGEFSSGRKWTDDAPKEEVDTG [G13T]
2.5

Source of measurements: the supplement of paper PMC10567573
